Biological target: T1, soluble human FcRn (shFcRn) (human, UniProt P55899 24-297; P61769 21-119)
T1 construct: Biotinylated for the ELISA, amine-coupled to a CM5 chip for SPR; also called biotinylated shFcRn
T1 sequence (P55899 24-297 limits assumed, chain 1 of 2): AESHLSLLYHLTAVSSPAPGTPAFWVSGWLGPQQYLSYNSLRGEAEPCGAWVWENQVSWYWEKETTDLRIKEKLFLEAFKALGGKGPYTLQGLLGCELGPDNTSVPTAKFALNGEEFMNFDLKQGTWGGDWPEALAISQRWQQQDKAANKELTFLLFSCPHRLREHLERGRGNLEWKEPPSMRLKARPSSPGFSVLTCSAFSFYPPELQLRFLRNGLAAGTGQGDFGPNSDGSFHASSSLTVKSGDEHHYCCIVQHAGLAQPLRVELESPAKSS
T1 sequence (P61769 21-119 limits assumed, chain 2 of 2): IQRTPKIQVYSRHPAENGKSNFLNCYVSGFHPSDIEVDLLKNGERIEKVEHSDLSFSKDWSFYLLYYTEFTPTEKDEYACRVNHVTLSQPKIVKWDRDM
Test: SPR pH 7.4
Bridge positions count the residues as written; N and C are the ends. Square brackets hold non-standard residues; d marks the D form. Ends that are not written are not given here. NMeL = CN[C@@H](CC(C)C)C(=O)O; Pen = CC(C)(S)[C@H](N)C(=O)O; Sar = CNCC(=O)O

binder	Kd (nM)
RF[Pen]TGKFG[Sar][NMeL]YPC-NH2 (disulfide 3-13; N-terminus assumed; SMILES CC(C)C[C@H]1C(=O)N[C@@H](Cc2ccc(O)cc2)C(=O)N2CCC[C@H]2C(=O)N[C@H](C(N)=O)CSSC(C)(C)[C@H](NC(=O)[C@H](Cc2ccccc2)NC(=O)[C@@H](N)CCCNC(=N)N)C(=O)N[C@@H]([C@@H](C)O)C(=O)NCC(=O)N[C@@H](CCCCN)C(=O)N[C@@H](Cc2ccccc2)C(=O)NCC(=O)N(C)CC(=O)N1C) [Peptide No. 255]	1100
